// reported melting point per item

Use the examples below as a reference point.
Looking for the measured melting point of `CCOc1cc2oc(=O)c3c(c2cc1OCC)CCN(CCN1CC2CCC(CC2)C1)C3` , can you help?
132 to 134 °C

Next entry: Cc1nc(N2CCCC(Cc3cccc(F)c3)C2=O)sc1C(=O)NCc1ccccc1 (stereo not drawn)
170 to 171 °C

Next entry: CC(=O)NC[C@H]1NC(=O)[C@H]1NC(=O)Cc1ccccc1 (relative stereo)
200 to 202 °C

Next entry: `CCn1cc(C(=O)O)c(=O)c2ccc(N3CCN(c4ncccn4)CC3)c(OC(F)F)c21`
> 300 °C

Next entry: `Cc1[nH]cc2c(=O)n(-c3ccc(Cl)cc3)nc-2c1-c1cccc(C(=O)N2CCCC2)c1`
253 to 255 °C

Continuing:
Looking for the measured melting point of `Cc1nc(N(C)c2cc(Cl)cc(Cl)c2)sc1-c1ccnc(Nc2ccc(N3CCOCC3)cc2)n1` , can you help?
216 to 218 °C

Next entry: O=C(O)C1=Cc2cc(Cl)c(Sc3ccccc3)cc2OC1C(F)(F)F (stereo not drawn)
272 to 274 °C

Next entry: `CCCCCCCCCCCCCCCCN(C(=O)C(F)(F)F)c1ccc(C(=O)O)cc1`
50 to 53 °C

Next entry: `CCCCn1nc(C(F)F)nc1Cc1ccc(-c2ccccc2-c2nnn[nH]2)nc1`
172 to 174 °C

Next entry: CCN(CC)c1ccc(C2(N(c3ccc(NC(C)=O)cc3)c3ccc(NC(C)=O)cc3)OC(=O)c3ccccc32)c(C)c1 (stereo not drawn)
179 to 182 °C

Next entry: COC(=O)C1CC(Oc2ccc(N)cc2)CN1C(=O)C1(C)CCc2c(C)c(O)c(C)c(C)c2O1 (stereo not drawn)
110 to 112 °C

Next entry: COc1ccc(C(Cl)Sc2ccc(Cl)cc2)cc1 (stereo not drawn)
76 to 77 °C

Next entry: Cc1c(C(=O)NCc2ccc3c(Br)c(OC(Cc4ccccc4)C(=O)O)ccc3c2)oc2ccccc12 (stereo not drawn)
110 to 113 °C

Next entry: `N#Cc1ccc(Nc2cc(Cc3c(Cl)cccc3Cl)nc(NCCCN3CCCC3=O)n2)cc1`
104 to 114 °C

Next entry: `CCCCCCCCCCCCCCCCCCON1C(=O)c2ccccc2C1=O`
82 to 88 °C

Next entry: Cc1ccc2c3c(ccc2n1)OCC(CN1CC=C(c2c[nH]c4c(F)cccc24)CC1)O3 (stereo not drawn)
205 to 210 °C

Next entry: `CSc1nccc(C)c1NC(=O)CCCCCCCCSc1nc2ccccc2o1`
91 to 92 °C

Next entry: `CC(C)OC(=O)N1CCC(NC(=O)N2CCn3c(c(C(N)=O)c(C#N)c3-c3ccccc3)C2)CC1`
172 to 174 °C

* * *

// reported melting point per item

Use the examples below as a reference point.
Looking for the measured melting point of `CN(NC(=O)c1ccccc1CO)C(=S)Nc1cccc(F)c1` , can you help?
136 to 137 °C

Next entry: `CN1c2c(oc(=O)n(-c3ncccn3)c2=O)-c2ccccc2S1(=O)=O`
282 to 284 °C

Next entry: `CCCS(=O)(=O)c1ccc2c(c1)C(=O)CC2`
100 °C

Continuing:
Looking for the measured melting point of `O=[N+]([O-])c1ccc(Oc2ccc(O)cc2)cc1` , can you help?
173 to 174 °C

Next entry: CC(C)CC(NC(=O)C(Cc1c[nH]cn1)NC(=O)C(CC(=O)NCCc1ccccc1)Cc1cccc2ccccc12)C(O)CO (mixture of isomers)
101 to 107 °C

Next entry: `O=C(O)CCCCCCCCCCCCCCCBr`
67 to 69 °C

Next entry: `CN(Cc1ccccc1)Cc1nc(-c2ncn3c2CN(C)C(=O)c2cc(F)ccc2-3)no1`
161 to 162 °C

Next entry: `CCOC(=O)c1ccc(-c2ccc(O)c(-c3ccc(N(CC)CC)c(C(F)(F)F)c3)c2)cc1`
170 °C

Next entry: `O=c1oc2cc(Cl)cnc2n1CO`
137 to 139 °C

Next entry: CCCCCCCCCCCCc1nnn(C(CCC)C(=O)Nc2c(OC)cc(OC)cc2OC)n1 (stereo not given)
146 to 148 °C

* * *

// reported melting point per item

Use the examples below as a reference point.
Looking for the measured melting point of `Cc1ccc2c(Br)csc2c1` , can you help?
51 to 53 °C

Next entry: CC(C)(C)c1ccc(OP2OCC3(CO2)COP(Oc2ccc(C(C)(C)C)cc2C(C)(C)C)OC3)c(C(C)(C)C)c1 (stereo not given)
174 to 177 °C

Next entry: `Cn1ccc(C(=O)c2ccc(Cc3ccc(F)cc3)o2)c(O)c1=O`
145 to 147 °C

Next entry: CC(=O)Oc1c(C)c(C)c2c(c1C)CCC(C)(CCBr)O2 (stereo not given)
102 to 103 °C

Next entry: `NC(=O)N(c1ccc(-c2c(CCO)sc3ncnc(N)c23)cc1)c1cccc(C(F)(F)F)c1`
155 to 158 °C

Next entry: CCC1(Cl)Cc2cc(OCC(=O)OC)c(Cl)c(Cl)c2C1=O (stereo not given)
111 °C

Next entry: `CSc1ncc2cc(C)c(N)nc2n1`
268 to 270 °C

Next entry: `Cc1ccnc(-c2ccc(C)c(-c3ccccc3)n2)n1`
105 °C

Continuing:
Looking for the measured melting point of CCOC(=O)Cc1ccc2c(c1)C(=O)C(NC(=O)OC)CC2 (stereo not given) , can you help?
95 to 97 °C

Next entry: `CC(C)(C)OC(=O)N1CCC[C@H]1COc1cnc(Cl)c(-c2ccc(Cl)cc2)c1`
86 to 89 °C

Next entry: `COc1cc(OC(=O)c2ccccc2)c2ccccc2c1OC(=O)c1ccccc1`
63 to 64 °C

Next entry: CCn1cc(C(=O)O)c(=O)c2cc(F)c(N3CCNC(COC(C)C)C3)cc21 (stereo not given)
144 to 146 °C

Next entry: `NC(=O)OCCn1nccc1-c1ccc(Oc2ccc(F)cc2)cc1`
120 to 125 °C

Next entry: CCOC(=O)Oc1ccc(S(=O)(=O)N2c3cc(F)c(F)cc3-n3cccc3C2C)cc1 (stereo not given)
89 to 91 °C

* * *

Metric: melting point

Use the examples below as a reference point.
Looking for the measured melting point of `O=C(CSc1ccccn1)C12CC3CC(CC(C3)C1)C2` , can you help?
60 to 61 °C

Next entry: `Nc1cc(S(N)(=O)=O)ccc1S(=O)(=O)CCCO`
136 to 138 °C

--- query ---
Looking for the measured melting point of `O=C(C=Cc1cccc(Cl)c1)c1ccccc1O` , can you help?
108 °C

* * *

Metric: melting point

Use the examples below as a reference point.
Looking for the measured melting point of `FC(F)C(F)(F)Sc1nc(-c2ccccc2)c(-c2ccccc2)n1COCc1ccccc1` , can you help?
70 to 70.5 °C

Next entry: CCCCCC(=O)NC(C(C)=O)c1ccccc1 (centres undefined)
77 to 78 °C

Next entry: `CCOC(=O)Cc1ccc(Cn2c(-c3ccc(OC4CCCC4)cc3)c(C)c3cc(OCc4ccccc4)ccc32)cc1`
96 to 98 °C

Next entry: CS(=O)(=O)c1ccc(C(CC2CCCC2)C(=O)Nc2nccs2)cc1[N+](=O)[O-] (centres undefined)
121 to 124 °C

Next entry: `O=C(Nc1nnn(CC(F)(F)F)n1)C(c1ccccc1)c1ccccc1`
146 to 148 °C

Next entry: CC(C(=O)CO)c1ccc(-c2ccccc2)c(F)c1 (centres undefined)
63 to 64.5 °C

Next entry: `COC(=O)C=Cc1cc2ccccc2nc1Cl`
153 to 154 °C

Next entry: `O=C(Nc1ccccc1Cl)Oc1ccc2c(c1)CCCN2Cc1ccccc1`
130 °C

--- query ---
Looking for the measured melting point of Cc1nc2ccc3c(c2nc1C)OC(CN1CC=C(c2c[nH]c4ccc(F)cc24)CC1)CO3 (centres undefined) , can you help?
138 to 141 °C

* * *

// reported melting point per item

Use the examples below as a reference point.
Looking for the measured melting point of `Cc1c(O)cc(O)c(C)c1C(=O)OCc1ccc([N+](=O)[O-])cc1` , can you help?
164 to 166 °C

Next entry: `CCOC(=O)c1cnn2c1c(SC)nc1c(C)nn(C)c12`
86 to 87 °C

Next entry: `CCc1c(CC(=O)O)ccc(OC)c1OC`
89 to 90 °C

Continuing:
Looking for the measured melting point of `CSc1ccc(-c2n[nH]c(=O)cc2-c2ccc(Cl)cc2)cc1` , can you help?
202 to 204 °C

Next entry: NS(=O)(=O)c1cnc(C2CC2=O)s1 (stereo unspecified)
148 to 149 °C

Next entry: `O=C(N[C@H]1CC[C@H](CCN2CCC(c3cccc4c3CCO4)CC2)CC1)c1ccc(Cl)cc1Cl`
188 °C

* * *

Metric: melting point

Use the examples below as a reference point.
Looking for the measured melting point of `Cc1cc(-c2ncn3c(C(F)(F)F)cc(-c4ccc(C(F)(F)F)c(OCC(F)(F)F)c4)nc23)ccn1` , can you help?
189 °C

Next entry: `COc1cc(C)nc(NC(=O)NS(=O)(=O)c2ccccc2CCSC#N)n1`
161 to 165 °C

Next entry: `COc1cc(Nc2nccc(-c3ccc(O)cc3)n2)cc(OC)c1OC`
200 to 202 °C

Next entry: CCn1c(=O)sc2cc(C(c3ccc([N+](=O)[O-])cc3)n3cncn3)ccc21 (stereo not given)
79 to 83 °C

--- query ---
Looking for the measured melting point of `Cc1c[nH]c2c(Sc3nc4cc(Cl)ccc4[nH]3)ccc([N+](=O)[O-])c12` , can you help?
252 to 253 °C
